Value source: ChEMBL document CHEMBL5230175

biological target: Protein-glutamine gamma-glutamyltransferase K (Homo sapiens) (UniProt P22735); assay: Irreversible inhibition of human TG1 using Cbz-Glu-(gamma-p-nitrophenylester)Gly (AL5) as substrate assessed as substrate hydrolysis by measuring observed binding constant incubated for 100 mins by colorimetric assay
Sequence (P22735 whole entry): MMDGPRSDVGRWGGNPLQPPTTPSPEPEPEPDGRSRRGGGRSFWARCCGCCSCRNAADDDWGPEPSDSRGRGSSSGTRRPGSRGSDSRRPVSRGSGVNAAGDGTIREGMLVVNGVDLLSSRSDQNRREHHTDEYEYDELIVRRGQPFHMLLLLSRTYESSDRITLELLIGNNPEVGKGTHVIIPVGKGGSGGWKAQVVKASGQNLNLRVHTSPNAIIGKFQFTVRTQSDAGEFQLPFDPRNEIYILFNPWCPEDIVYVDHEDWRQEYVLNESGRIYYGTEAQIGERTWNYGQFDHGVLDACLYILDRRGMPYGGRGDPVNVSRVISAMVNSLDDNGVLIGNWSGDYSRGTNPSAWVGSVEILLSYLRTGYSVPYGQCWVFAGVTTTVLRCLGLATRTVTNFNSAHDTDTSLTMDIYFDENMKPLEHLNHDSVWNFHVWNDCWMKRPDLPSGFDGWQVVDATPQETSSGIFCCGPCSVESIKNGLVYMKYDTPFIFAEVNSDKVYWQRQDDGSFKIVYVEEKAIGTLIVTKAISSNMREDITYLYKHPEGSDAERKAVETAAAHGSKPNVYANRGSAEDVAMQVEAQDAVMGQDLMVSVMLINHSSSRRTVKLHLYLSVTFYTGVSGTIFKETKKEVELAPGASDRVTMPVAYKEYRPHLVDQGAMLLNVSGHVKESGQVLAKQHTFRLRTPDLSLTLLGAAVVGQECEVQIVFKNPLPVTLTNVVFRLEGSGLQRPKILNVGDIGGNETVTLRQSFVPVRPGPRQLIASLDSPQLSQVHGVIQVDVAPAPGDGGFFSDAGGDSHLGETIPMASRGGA
K values, listed per item
parameter: K (min⁻¹)

>>> measured_value("C=CC(=O)NCC(=O)N1CCN(C(=O)C23CC4CC(CC(C4)C2)C3)CC1")
0.023
>>> measured_value("C=C(Cl)C(=O)NCC(=O)N1CCN(C(=O)C23CC4CC(CC(C4)C2)C3)CC1")
0.022
>>> measured_value("O=C(CCl)NCC(=O)N1CCN(C(=O)C23CC4CC(CC(C4)C2)C3)CC1")
0.018
>>> measured_value("C=C(Br)C(=O)NCC(=O)N1CCN(C(=O)C23CC4CC(CC(C4)C2)C3)CC1")
0.018

###

molecular target: UniProt P21980; assay: Inhibition of human recombinant tissue transglutaminase expressed in Escherichia coli using Cbz-Glu-(gamma-p-nitrophenylester)Gly (AL5) as substrate assessed as substrate hydrolysis by measuring Kinact incubated for 20 mins by colorimetric analysis
parameter: Kinact (min⁻¹)

>>> measured_value("C=C(C(=O)NCC(=O)N1CCN(C(=O)C23CC4CC(CC(C4)C2)C3)CC1)C(F)(F)F")
5.22
>>> measured_value("O=C(CN=C=S)N1CCN(C(=O)C23CC4CC(CC(C4)C2)C3)CC1")
0.23
>>> measured_value("C=C(Cl)C(=O)NCC(=O)N1CCN(C(=O)C23CC4CC(CC(C4)C2)C3)CC1")
7.28
>>> measured_value("C=C(Br)C(=O)NCC(=O)N1CCN(C(=O)C23CC4CC(CC(C4)C2)C3)CC1")
4.69
>>> measured_value("[N-]=[N+]=CC(=O)NCC(=O)N1CCN(C(=O)C23CC4CC(CC(C4)C2)C3)CC1")
2.82
>>> measured_value("C[S+]([O-])CCCCN=C=S (stereo not given)")
0.27
>>> measured_value("C#CC(=O)NCC(=O)N1CCN(C(=O)C23CC4CC(CC(C4)C2)C3)CC1")
6.83
>>> measured_value("C=C(F)C(=O)NCC(=O)N1CCN(C(=O)C23CC4CC(CC(C4)C2)C3)CC1")
1.17
>>> measured_value("O=C(NCC(=O)N1CCN(C(=O)C23CC4CC(CC(C4)C2)C3)CC1)C(F)Cl (stereo not given)")
1.57
>>> measured_value("O=C(CCl)NCC(=O)N1CCN(C(=O)C23CC4CC(CC(C4)C2)C3)CC1")
1.23

###

Below is a list of entries, each paired with its recorded Ratio value.
target: Protein-glutamine gamma-glutamyltransferase (Homo sapiens) (UniProt P21980); assay: Irreversible inhibition of human recombinant tissue transglutaminase expressed in Escherichia coli using Cbz-Glu-(gamma-p-nitrophenylester)Gly (AL5) as substrate assessed as substrate hydrolysis by measuring Kinact/Ki ratio incubated for 20 mins by colorimetric analysis
Sequence (P21980 whole entry): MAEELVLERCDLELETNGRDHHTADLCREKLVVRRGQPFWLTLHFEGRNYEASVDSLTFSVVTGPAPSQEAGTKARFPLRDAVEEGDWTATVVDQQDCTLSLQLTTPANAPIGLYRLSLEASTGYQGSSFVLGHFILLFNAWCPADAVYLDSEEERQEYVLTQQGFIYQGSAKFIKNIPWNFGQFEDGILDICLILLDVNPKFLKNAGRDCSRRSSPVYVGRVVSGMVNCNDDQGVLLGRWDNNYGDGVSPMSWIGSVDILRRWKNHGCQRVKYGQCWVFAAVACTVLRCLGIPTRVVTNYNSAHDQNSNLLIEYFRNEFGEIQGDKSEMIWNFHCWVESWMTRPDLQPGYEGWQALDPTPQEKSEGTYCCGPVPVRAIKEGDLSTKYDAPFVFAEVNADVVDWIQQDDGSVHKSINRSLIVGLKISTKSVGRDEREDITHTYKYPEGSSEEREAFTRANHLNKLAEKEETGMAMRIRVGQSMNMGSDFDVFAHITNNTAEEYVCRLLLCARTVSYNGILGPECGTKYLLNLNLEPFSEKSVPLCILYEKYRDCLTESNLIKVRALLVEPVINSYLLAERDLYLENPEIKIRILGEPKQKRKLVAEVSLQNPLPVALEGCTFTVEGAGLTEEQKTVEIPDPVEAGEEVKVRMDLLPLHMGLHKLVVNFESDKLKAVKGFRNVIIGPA
parameter: Ratio

>>> measured_value("O=C(CCl)NCC(=O)N1CCN(C(=O)C23CC4CC(CC(C4)C2)C3)CC1")
"8050 10^3/M/min"
>>> measured_value("O=C(NCC(=O)N1CCN(C(=O)C23CC4CC(CC(C4)C2)C3)CC1)C(F)Cl (stereo not given)")
"17.8 10^3/M/min"
>>> measured_value("C=C(Br)C(=O)NCC(=O)N1CCN(C(=O)C23CC4CC(CC(C4)C2)C3)CC1")
"2410 10^3/M/min"
>>> measured_value("C=C(C(=O)NCC(=O)N1CCN(C(=O)C23CC4CC(CC(C4)C2)C3)CC1)C(F)(F)F")
"171 10^3/M/min"
>>> measured_value("O=C(CN=C=S)N1CCN(C(=O)C23CC4CC(CC(C4)C2)C3)CC1")
"26.3 10^3/M/min"
>>> measured_value("C=C(Cl)C(=O)NCC(=O)N1CCN(C(=O)C23CC4CC(CC(C4)C2)C3)CC1")
"3130 10^3/M/min"
>>> measured_value("C/C=C/C(=O)NCC(=O)N1CCN(C(=O)C23CC4CC(CC(C4)C2)C3)CC1")
"8.3 10^3/M/min"
>>> measured_value("C#CC(=O)NCC(=O)N1CCN(C(=O)C23CC4CC(CC(C4)C2)C3)CC1")
"97.5 10^3/M/min"
>>> measured_value("[N-]=[N+]=CC(=O)NCC(=O)N1CCN(C(=O)C23CC4CC(CC(C4)C2)C3)CC1")
"107 10^3/M/min"
>>> measured_value("C=C(F)C(=O)NCC(=O)N1CCN(C(=O)C23CC4CC(CC(C4)C2)C3)CC1")
"30.4 10^3/M/min"
